Kindly supply the reported kd var/kd wt values for the records listed here.
# MEASURED ON: T1, human TGFβ3 (human, UniProt P10600 301-412)
# T1 sequence: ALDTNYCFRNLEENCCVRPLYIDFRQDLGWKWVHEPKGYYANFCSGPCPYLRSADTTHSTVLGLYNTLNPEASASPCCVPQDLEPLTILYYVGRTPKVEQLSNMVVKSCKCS
# ASSAY EXPLANATION: Biacore off-rate vs wt GC1008, 50 nM
Enter a number only.

QUERY: Item under review: S30C (antibody, V domains shown, GC1008 IgG4 variant) VH: QVQLVQSGAEVKKPGSSVKVSCKASGYTFCSNVISWVRQAPGQGLEWMGGVIPIVDIANYAQRFKGRVTITADESTSTTYMELSSLRSEDTAVYYCASTLGLVLDAMDYWGQGTLVTVSS VL: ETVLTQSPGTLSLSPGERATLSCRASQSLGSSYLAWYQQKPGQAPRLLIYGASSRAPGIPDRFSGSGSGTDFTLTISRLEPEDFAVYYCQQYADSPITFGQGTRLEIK . Reported kd var/kd wt?
RESULT: 1

QUERY: What value of measured kd var/kd wt is listed for S31K (antibody, V domains shown, GC1008 IgG4 variant) VH: QVQLVQSGAEVKKPGSSVKVSCKASGYTFSKNVISWVRQAPGQGLEWMGGVIPIVDIANYAQRFKGRVTITADESTSTTYMELSSLRSEDTAVYYCASTLGLVLDAMDYWGQGTLVTVSS VL: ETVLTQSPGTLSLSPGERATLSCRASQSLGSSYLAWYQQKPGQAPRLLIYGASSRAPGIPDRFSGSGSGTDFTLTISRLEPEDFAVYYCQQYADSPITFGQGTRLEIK ?
RESULT: 1.4

QUERY: Any idea what kd var/kd wt was measured for Y27R (antibody, V domains shown, GC1008 IgG4 variant) VH: QVQLVQSGAEVKKPGSSVKVSCKASGRTFSSNVISWVRQAPGQGLEWMGGVIPIVDIANYAQRFKGRVTITADESTSTTYMELSSLRSEDTAVYYCASTLGLVLDAMDYWGQGTLVTVSS VL: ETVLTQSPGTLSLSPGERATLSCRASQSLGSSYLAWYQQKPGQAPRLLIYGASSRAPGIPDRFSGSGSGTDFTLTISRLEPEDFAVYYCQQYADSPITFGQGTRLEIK ?
RESULT: 1.7

Source: patent US20170342144A1
